Reported IC50 values follow for various compounds
- Assay explanation: Inhibition of Saccharomyces cerevisiae FTase
Number in nM, nothing else.

As a guide, the following entries are already answered.
INSERT INTO results (compound, scale_unit, measured_result) VALUES
  ('CC(C)(C)OC(=O)NC(C(=O)Nc1ccc(NC(=O)/C=C/c2ccc(-c3ccc([N+](=O)[O-])cc3)o2)cc1C(=O)c1ccccc1)c1ccc(C(F)(F)F)cc1 (stereo not drawn)', 'nM', 8),
  ('O=C(/C=C/c1ccc(-c2ccc([N+](=O)[O-])cc2)o1)Nc1ccc(NC(=O)Cc2ccc(C(F)(F)F)cc2)c(C(=O)c2ccccc2)c1', 'nM', 26);

Report IC50 for CN1CCN(C(C(=O)Nc2ccc(NC(=O)/C=C/c3ccc(-c4ccc([N+](=O)[O-])cc4)o3)cc2C(=O)c2ccccc2)c2ccc(Cl)cc2)CC1 (stereo not drawn)
125

* * *

Reported log10 of IC50 values follow for various compounds
- Assay explanation: Inhibition of Saccharomyces cerevisiae FTase
// do not treat as linear: log10 of IC50, unit nM

As a guide, the following entries are already answered.
INSERT INTO results (compound, quantity_name, measured_result) VALUES
  ('N[C@H](C(=O)Nc1ccc(NC(=O)/C=C/c2ccc(-c3ccc([N+](=O)[O-])cc3)o2)cc1C(=O)c1ccccc1)c1ccccc1', 'log10 of IC50', 1.66),
  ('O=C(/C=C/c1ccc(-c2ccc([N+](=O)[O-])cc2)o1)Nc1ccc(NC(=O)C(c2ccccc2)N2CCOCC2)c(C(=O)c2ccccc2)c1 (stereo not given)', 'log10 of IC50', 2.82),
  ('CC(C)NC(=O)CN1CCN(C(C(=O)Nc2ccc(NC(=O)/C=C/c3ccc(-c4ccc([N+](=O)[O-])cc4)o3)cc2C(=O)c2ccccc2)c2ccccc2)CC1 (stereo not given)', 'log10 of IC50', 2.53);

Report log10 of IC50 for CC[C@H](C)[C@H](N)C(=O)Nc1ccc(NC(=O)/C=C/c2ccc(-c3ccc([N+](=O)[O-])cc3)o2)cc1C(=O)c1ccccc1
2.18

Report log10 of IC50 for CC(C)C[C@@H](N)C(=O)Nc1ccc(NC(=O)/C=C/c2ccc(-c3ccc([N+](=O)[O-])cc3)o2)cc1C(=O)c1ccccc1
2.70

Provenance of the data: ChEMBL document CHEMBL1139470
